Tested on: Mycobacterium tuberculosis
EXPERIMENTAL PROTOCOL: Antimycobacterial activity against Mycobacterium tuberculosis H37Rv assessed as inhibition of bacterial growth incubated for 7 days by MABA assay
Format: functional
STUDY CONDITIONS: 168 h, time 7 day
MEASURED PROPERTY: MIC (mg/L)
State the answer as a number, implicitly in mg/L.

Prompt: System Mycobacterium tuberculosis. Read-out MIC. Item `CC(=O)N1CCN(c2ccc(/C=C(\C#N)c3nc4ccccc4[nH]3)cc2)CC1` . Report value.
Response: 12.5

Prompt: Please look at `N#C/C(=C\c1ccc(N2CCN(Cc3ccc(F)cc3)CC2)cc1)c1nc2ccccc2[nH]1` and tell me its recorded MIC on Mycobacterium tuberculosis.
Response: 25

Prompt: Enter measured MIC, system Mycobacterium tuberculosis, for the molecule shown: CO[C@H]1/C=C/O[C@@]2(C)Oc3c(C)c(O)c4c(O)c(c(/C=N/N5CCN(C)CC5)c(O)c4c3C2=O)NC(=O)/C(C)=C\C=C\[C@H](C)[C@H](O)[C@@H](C)[C@@H](O)[C@@H](C)[C@H](OC(C)=O)[C@@H]1C [RIFAMPIN]
Response: 0.1

###

# FC per record follows
Test system: Mycobacterium tuberculosis
EXPERIMENTAL PROTOCOL: Antimycobacterial activity against dormant form of Mycobacterium tuberculosis H37Rv assessed as log fold reduction in bacterial count at 10 ug/ml under nutrient starvation condition after 7 days by MPN assay
Type: functional
STUDY CONDITIONS: dose 10 µg/ml; time 7 day
Just the number, please, no unit attached.

Some solved cases for reference:
[
  {
    "SMILES REPRESENTATION": "CO[C@H]1/C=C/O[C@@]2(C)Oc3c(C)c(O)c4c(O)c(c(/C=N/N5CCN(C)CC5)c(O)c4c3C2=O)NC(=O)/C(C)=C\\C=C\\[C@H](C)[C@H](O)[C@@H](C)[C@@H](O)[C@@H](C)[C@H](OC(C)=O)[C@@H]1C",
    "FC": 1.5
  },
  {
    "SMILES REPRESENTATION": "COc1c(N2C[C@@H]3CCCN[C@@H]3C2)c(F)cc2c(=O)c(C(=O)O)cn(C3CC3)c12",
    "FC": 1.5
  },
  {
    "SMILES REPRESENTATION": "NNC(=O)c1ccncc1",
    "FC": 1.5
  },
  {
    "SMILES REPRESENTATION": "Cc1ccc(N2CCN(c3ccc(/C=C(\\C#N)c4nc5ccccc5[nH]4)cc3)CC2)cc1",
    "FC": 2.8
  }
]

Now for a further compound.
Prompt: Respond only with FC recorded for `O=C(O)c1cn(C2CC2)c2cc(N3CCNCC3)c(F)cc2c1=O`
Response: 1.5

###

System: Mycobacterium tuberculosis
EXPERIMENTAL PROTOCOL: Antimycobacterial activity against Mycobacterium tuberculosis H37Rv assessed as inhibition of bacterial growth incubated for 7 days by MABA assay
Type: functional
STUDY CONDITIONS: 168 h, time 7 day
Parameter MIC: see the listing below.
# unit: µg/mL | format: bare number

[
  {
    "SMILES REPRESENTATION": "CC[C@@H](CO)NCCN[C@@H](CC)CO",
    "OBSERVED VALUE": 1.56
  },
  {
    "SMILES REPRESENTATION": "COc1ccc(N2CCN(c3ccc(/C=C(\\C#N)c4nc5ccccc5[nH]4)cc3)CC2)cc1",
    "OBSERVED VALUE": 6.25
  }
]

Prompt: State MIC on Mycobacterium tuberculosis. Entry: `NNC(=O)c1ccncc1`
Response: 0.05

###

Test system: Mycobacterium tuberculosis
EXPERIMENTAL PROTOCOL: Antimycobacterial activity against Mycobacterium tuberculosis H37Rv assessed as inhibition of bacterial growth incubated for 7 days by MABA assay
Type: functional
STUDY CONDITIONS: 168 h, time 7 day
MEASURED PROPERTY: MIC

[
  {
    "COMPOUND": "N#CC(Cc1ccc(N2CCN(c3ccccc3)CC2)cc1)c1nc2ccccc2[nH]1 (centres undefined)",
    "OBSERVED VALUE": "> 25 µg/mL"
  },
  {
    "COMPOUND": "N#C/C(=C\\c1ccc(N2CCN(C3CCCCC3)CC2)cc1)c1nc2ccccc2[nH]1",
    "OBSERVED VALUE": "> 25 µg/mL"
  },
  {
    "COMPOUND": "CN1CCN(c2ccc(/C=C(\\C#N)c3nc4ccccc4[nH]3)cc2)CC1",
    "OBSERVED VALUE": "> 25 µg/mL"
  },
  {
    "COMPOUND": "N#C/C(=C\\c1ccc(N2CCN(Cc3ccccc3)CC2)cc1)c1nc2ccccc2[nH]1",
    "OBSERVED VALUE": "> 25 µg/mL"
  },
  {
    "COMPOUND": "COc1cccc(N2CCN(c3ccc(/C=C(\\C#N)c4nc5ccccc5[nH]4)cc3)CC2)c1",
    "OBSERVED VALUE": "> 25 µg/mL"
  },
  {
    "COMPOUND": "N#C/C(=C\\c1ccc(N2CCN(c3ccc(Cl)cc3)CC2)cc1)c1nc2ccccc2[nH]1",
    "OBSERVED VALUE": "> 25 µg/mL"
  },
  {
    "COMPOUND": "N#C/C(=C\\c1ccc(N2CCN(c3ccc(F)cc3)CC2)cc1)c1nc2ccccc2[nH]1",
    "OBSERVED VALUE": "> 25 µg/mL"
  },
  {
    "COMPOUND": "N#C/C(=C\\c1ccc(N2CCN(c3ccccc3)CC2)cc1)c1nc2ccccc2[nH]1",
    "OBSERVED VALUE": "6.25 µg/mL"
  }
]

Now let's try a different one.
Prompt: Answer with the recorded MIC for the compound listed here: `Cc1ccc(N2CCN(c3ccc(/C=C(\C#N)c4nc5ccccc5[nH]4)cc3)CC2)cc1`
Response: 0.78 µg/mL
